These measurements were taken from paper PMC8168397.

# SYSTEM NAME: Syrian hamster FcγRIV, soluble ectodomain (Syrian hamster (Mesocricetus auratus))
# ASSAY PROCEDURE: SPR
REPORTED METRIC: Kd
Hi, when you answer, please include the unit after the number. Thanks!

Item human IgG1 Fc domain variant GAALIE (from UniProt P01857) with Syrian hamster FcγRIV, soluble ectodomain (Syrian hamster (Mesocricetus auratus)) - Kd? 9.52 nM

---

# SYSTEM NAME: Syrian hamster FcγRIIb, soluble ectodomain (Syrian hamster (Mesocricetus auratus))
# ASSAY PROCEDURE: SPR
REPORTED METRIC: Kd
Hi, when you answer, please include the unit after the number. Thanks!

Any idea what its Kd is? The substance is human IgG1 Fc domain variant GAALIE (from UniProt P01857) 328 nM
